Measured Target: T1, basiliximab fab
T1 construct: The assay used a Fab of basiliximab; Chimeric antibody: human IgG1 constant, mouse variable domains
T1 sequence (VH, as listed by the source limits assumed, chain 1 of 2): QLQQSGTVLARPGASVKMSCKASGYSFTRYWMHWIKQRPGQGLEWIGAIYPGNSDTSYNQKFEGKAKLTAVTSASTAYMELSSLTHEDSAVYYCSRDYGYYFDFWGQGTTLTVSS
T1 sequence (VL, as listed by the source limits assumed, chain 2 of 2): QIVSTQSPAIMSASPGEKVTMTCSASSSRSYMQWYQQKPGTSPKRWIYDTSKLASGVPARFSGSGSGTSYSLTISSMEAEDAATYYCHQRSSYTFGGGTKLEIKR
Assay Name: BLI; CD25-Fc on anti-hFc biosensor, basiliximab Fab in solution; global 1:1 fit;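 also: biolayer interferometry signals normalized against a reference probe and smoothed with a Savitzky-Golay filter before the global fit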
Outcome Measure: koff (s⁻¹)
One number for each entry, in s⁻¹.

Query :: Give the measured koff for CD25 T47D mutant (CD25-Fc) (Fc fusion, not shown: Fc part of CD25-Fc) ELCDDDPPEIPHATFKAMAYKEGTMLNCECKRGFRRIKSGSLYMLCDGNSSHSSWDNQCQCTSSATRNTTKQVTPQPEEQKERKTTEMQSPMQPVDQASLPGHCREPPPWENEATERIYHFVVGQMVYYQCVQGYRALHRGPAESVCKMTHGKTRWTQPQLICTGEMETSQFPGEEKPQASPEGRPESETSCLVTTTDFQIQTEMAATMETSIFTTEYQ
Result :: 0.00787
